ASSAY TARGET: T1, StrepII-tagged human ROR1 extracellular domain (human, UniProt Q01973 30-406)
T1 construct: extracellular domain; also called ROR1-strep; strep-tagged human ROR1
T1 sequence (Q01973 other isoform, or with tags, fused parts or gaps): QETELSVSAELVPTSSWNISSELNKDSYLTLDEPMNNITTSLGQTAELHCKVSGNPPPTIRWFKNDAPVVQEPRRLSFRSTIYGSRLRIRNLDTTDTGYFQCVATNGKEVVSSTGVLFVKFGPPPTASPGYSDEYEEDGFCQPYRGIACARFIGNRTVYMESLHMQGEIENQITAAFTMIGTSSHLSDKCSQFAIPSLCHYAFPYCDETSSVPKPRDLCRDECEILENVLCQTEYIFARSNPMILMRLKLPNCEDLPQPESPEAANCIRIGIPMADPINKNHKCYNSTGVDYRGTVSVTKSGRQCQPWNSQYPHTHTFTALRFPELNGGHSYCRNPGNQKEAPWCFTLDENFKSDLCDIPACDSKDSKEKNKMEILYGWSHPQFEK
METHOD NOTES: SPR (Biacore T200); mAb captured by goat anti-human Fcγ IgG on CM5; ROR1-strep as analyte (Example 8)
EXPERIMENTAL ENDPOINT: kon (M⁻¹ s⁻¹)

BINDER	ENDPOINT VALUE
HuXBR1-402(8) (mAb289) (antibody, human IgG1, V domains shown, Humanized IgG (human IgG1 constant regions, lambda)) VH: QVQLQESGPGLVKPSETLSLTCTVSGFDISSYYMSWVRQPPGKGLEWIGAIGISGNAYYASWAKSRVTISRDTSKNQFSLKLSSVTAADTAVYYCARDHPTYGMDLWGPGTLVTVSS VL: SYELTQPPSVSVSPGQTAIITCEGNNIGSKAVHWYQQKPGLSPVLVIYDDDERPSGIPERFSGSNSGNTATLTVSGTQDMDEADYYCQVWDSSAYVFGGGTKLTVLG	1.29e+06
HuXBR1-402(19) (mAb295) (antibody, human IgG1, V domains shown, Humanized IgG (human IgG1 constant regions, lambda)) VH: QVQLQESGPGLVKPSETLSLTCTVSGFDISSYYMSWVRQPPGNGLEWIGAIGISGNAYYASWAKSRVTISRDTSKNQFSLKLSSVTAADTAVYYCARDHPTYGMDLWGPGTLVTVSS VL: SYELTQPPSVSVAPGKTARITCEGNNIGSKAVHWYQQKPGQAPVLVIYDDDERPSGIPERFSGSNSGNTATLTISRVEAGDEADYYCQVWDSSAYVFGGGTKLTVLG	1.11e+06
HuXBR1-402(15) (mAb290) (antibody, human IgG1, V domains shown, Humanized IgG (human IgG1 constant regions, lambda)) VH: QVQLQESGPGLVKPSETLSLTCTVSGFDISSYYMSWVRQPPGKGLEWIGAIGISGNAYYASWAKSRVTISRDTSKNQFSLKLSSVTAADTAVYYCARDHPTYGMDLWGPGTLVTVSS VL: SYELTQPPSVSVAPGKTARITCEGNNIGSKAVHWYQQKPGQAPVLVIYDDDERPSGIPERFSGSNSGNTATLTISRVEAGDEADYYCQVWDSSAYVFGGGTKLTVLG	1.11e+06

Taken from patent US20220153839A1.
